Each recorded value in this set is attributed to patent US7166296B2.

Test system: UEA-1 binding sites on Caco-2 cell membrane preparations
Assay: Two tier competition assay: compound incubated alone with membranes, biotinylated UEA-1 added in next step
Set-up: species or system human
Settings: Two Tier Assay, 250 μg/ml; library MSI 22
Method: The epithelial cell binding ability of compounds and mixtures obtained from synthetic combinatorial libraries was determined by competition assays. […] • 1. […] The protein concentration was determined using e.g. a Bio-Rad protein assay. • 9. […] The plates were flicked out, patted dry and biotinylated UEA-1 was detected with commercial Streptavidin conjugated to horseradish peroxidase (HRP) (CalBiochem). […]
# Av % Inhibition values compiled below
Unit % implied. Number only.

Below, 6 molecules whose answers are already recorded.
CNC[C@@H](Cc1ccc2ccccc2c1)N(C)C[C@H](NC(=O)c1cc(O)c(O)c(O)c1)C(C)C: 46.9
CCOc1ccc(C[C@H](CNC)N(C)C[C@H](CC2CCCCC2)NC(=O)c2cc(OC)c(OC)c(OC)c2)cc1: 43.8
CCOc1ccc(C[C@H](CNC)N(C)C[C@H](CC2CCCCC2)NC(=O)c2cc(O)c(O)c(O)c2)cc1 [D-Tyr (Et), L-chAla, Gallic Acid]: 52.7
CCOc1ccc(C[C@H](CNC)N(C)C[C@@H](CCCNC(=N)NS(=O)(=O)c2ccc(C)cc2)NC(=O)c2cc(O)c(O)c(O)c2)cc1 [D-Tyr (Et), D-Arg(Tos), Gallic Acid]: 61
CNC[C@H](Cc1ccc2ccccc2c1)N(C)C[C@@H](Cc1ccc2ccccc2c1)NC(=O)c1cc(O)c(O)c(O)c1: 44.6
CNC[C@H](Cc1ccc2ccccc2c1)N(C)C[C@H](Cc1ccc(Cl)cc1)NC(=O)c1cc(O)c(O)c(O)c1: 54.7

Av % Inhibition for CCC[C@H](CNC)N(C)C[C@H](NC(=O)c1cc(O)c(O)c(O)c1)C(C)C is 29.8

----------
Overview of reported IC 50 (ug/ml) 2nd tier across a group of compounds:
test system: UEA-1 binding sites on Caco-2 cell membrane preparations; test: Two tier competition assay: compound incubated alone with membranes, biotinylated UEA-1 added in next step; design: species or system human; conditions: Table 8, galloyl constructs
Non-standard residues stand in square brackets, D forms with d. Residues, ends and D or L forms follow the SMILES beside them. *: point of attachment. Galloyl = O=C(c1cc(O)c(O)c(O)c1)*; Orn = NCCC[CH](N)C(=O)O
Please don't drop the unit; write it after the number.

CC(=O)NC(CCCNC(=O)c1cc(O)c(O)c(O)c1)C(=O)NC(CCCNC(=O)c1cc(O)c(O)c(O)c1)C(=O)NC(CCCNC(=O)c1cc(O)c(O)c(O)c1)C(=O)NC(CCCNC(=O)c1cc(O)c(O)c(O)c1)C(N)=O (stereo not drawn) [MSI 34 #23] (Ac-[Orn](Galloyl)[Orn](Galloyl)[Orn](Galloyl)[Orn](Galloyl)-NH2; configuration not given here): 1 µg/mL
CC(=O)N[C@H](CCCCNC(=O)c1cc(O)c(O)c(O)c1)C(=O)N[C@H](CCCCNC(=O)c1cc(O)c(O)c(O)c1)C(=O)N[C@H](CCCCNC(=O)c1cc(O)c(O)c(O)c1)C(=O)N[C@H](CCCCNC(=O)c1cc(O)c(O)c(O)c1)C(N)=O [MSI 39 #12] (Ac-[dK](Galloyl)[dK](Galloyl)[dK](Galloyl)[dK](Galloyl)-NH2): 3 µg/mL

We now examine a further compound.
Quick note, IC 50 (ug/ml) 2nd tier for NC(=O)C(Cc1ccc(NC(=O)c2cc(O)c(O)c(O)c2)cc1)NC(=O)C(Cc1ccc(NC(=O)c2cc(O)c(O)c(O)c2)cc1)NC(=O)C(Cc1ccc(NC(=O)c2cc(O)c(O)c(O)c2)cc1)NC(=O)c1cc(O)c(O)c(O)c1 (stereo not drawn) landed at 6 µg/mL

----------
tested on: UEA-1 binding sites on Caco-2 cell membrane preparations; assay: Two tier competition assay: compound incubated alone with membranes, biotinylated UEA-1 added in next step; parameters: species or system human; conditions: Two Tier Assay, 50 μg/ml; library TP1012
Attribute Measured: Avg % Inhib (%)
Numeric answer only, unit % assumed.

CCCC[C@H](CNC)N(C)C[C@H](CC1CCCCC1)NC(=O)c1cc(O)c(O)c(O)c1 [compound 90]: 53.66

// Avg % Inhib lookup, molecule = CNC[C@H](Cc1ccc(F)cc1)N(C)C[C@H](Cc1ccc(F)cc1)NC(=O)Cc1cccc(C(F)(F)F)c1 [compound 144] , result: 42.26

Entry under test: CCCC[C@@H](CNC)N(C)C[C@H](CC1CCCCC1)NC(=O)c1cc(O)c(O)c(O)c1 [compound 96] . Its Avg % Inhib was 42.93

Avg % Inhib reading for CNC[C@H](Cc1ccc(F)cc1)N(C)C[C@H](Cc1ccc(F)cc1)NC(=O)Cc1ccc(Cl)c(Cl)c1 [compound 141] : 41.43

Reported Avg % Inhib ( CCCC[C@@H](CNC)N(C)C[C@@H](CC1CCCCC1)NC(=O)c1cc(O)c(O)c(O)c1 [compound 92] ) = 54.8899

Record CCCCC(CNC)N(C)CC(CC1CCCCC1)NC(=O)c1cc(O)c(O)c(O)c1 (stereo not shown) [compound 86] , field Avg % Inhib: 61.61

Notebook: CNC[C@H](CC(C)C)N(C)C[C@H](Cc1ccccc1)NC(=O)c1cc(O)c(O)c(O)c1 [compound 125] , Avg % Inhib read as 61.02

----------
Test system: UEA-1 binding sites on Caco-2 cell membrane preparations
Experiment: Single tier competition assay: inhibition of biotinylated UEA-1 binding, compound and biotinylated UEA-1 incubated together
Design: species or system human
Settings: Single Tier Assay, 62.5 μg/ml; library MSI 26
Procedure: The epithelial cell binding ability of compounds and mixtures obtained from synthetic combinatorial libraries was determined by competition assays. […] • 1. […] The protein concentration was determined using e.g. a Bio-Rad protein assay. • 9. […] The plates were flicked out, patted dry and biotinylated UEA-1 was detected with commercial Streptavidin conjugated to horseradish peroxidase (HRP) (CalBiochem). […]
Measured Avg % Inhibtion values are reported for all entries that follow.
// unit must come after the numeric part

Study these solved cases before continuing.
O=C(O[C@@H]1Cc2c(O)cc(O)cc2O[C@H]1c1cc(O)c(O)c(O)c1)c1cc(O)c(O)c(O)c1 [Gallocatechin gallate, reference compound]: 54.6%
CCCCCCCCCCCCOC(=O)c1cc(O)c(O)c(O)c1 [Lauryl gallate, reference compound]: 39.1%

For this compound ( COC(=O)c1cc(O)c(O)c(O)c1 [Methyl 3,5,4-trihydroxybenzoate, reference compound] ), measured Avg % Inhibtion is 1%

Please fill in: Avg % Inhibtion reported for Oc1cc(O)c2c(c1)O[C@H](c1cc(O)c(O)c(O)c1)[C@H](O)C2 [Epigallocatechin, reference compound] = 10.1%

----------
system: UEA-1 binding sites on Caco-2 cell membrane preparations; test: Single tier competition assay: inhibition of biotinylated UEA-1 binding, compound and biotinylated UEA-1 incubated together; set-up: species or system human; conditions: library MSI 27; read-out: Single Tier Assay IC50
# IC50 per record follows
Quick note: give the figure in µM, leave out the unit.

Data point: CC(=O)NC(CCCCNC(=O)c1cc(O)cc(O)c1)C(=O)NC(CCCCNC(=O)c1cc(O)cc(O)c1)C(=O)NC(CCCCNC(=O)c1cc(O)cc(O)c1)C(N)=O (stereo not drawn) ; IC50 = 147

Please fill in: IC50 reported for COc1cc(C(=O)NCCCCC(NC(=O)C(CCCCNC(=O)c2cc(OC)c(O)c(OC)c2)NC(=O)C(CCCCNC(=O)c2cc(OC)c(O)c(OC)c2)NC(=O)c2cc(OC)c(O)c(OC)c2)C(N)=O)cc(OC)c1O (stereo not drawn) = 80

The recorded IC50 for entry CCOC(=O)Oc1c(OC)cc(C(=O)NCCCCC(NC(=O)C(CCCCNC(=O)c2cc(OC)c(OC(=O)OCC)c(OC)c2)NC(=O)C(CCCCNC(=O)c2cc(OC)c(OC(=O)OCC)c(OC)c2)NC(C)=O)C(N)=O)cc1OC (stereo not drawn) equals 75.1

----------
system: UEA-1 binding sites on Caco-2 cell membrane preparations; assay: Competition assay of biotinylated UEA-1 binding, tier (single/two) not given; set-up: species or system human; conditions: 50 μg/ml; second pair of columns, tier not printed; library TPI 1066
Attribute Measured: Av % Inhibition (%)
Form entry: value (%) — number only.

Consider the following illustrative entries.
COc1cc(C(=O)O)cc(OC)c1O: 65
COc1ccc(C(=O)O)cc1OC [compound 10, 3,4-Dimethoxybenzoic acid]: 24

Next compound, Av % Inhibition to be filled in.
Entry COc1ccc(C(=O)O)cc1OC [compound 26, 3,4-Dimethoxybenzoic acid] ; Av % Inhibition = 39
